The origin of these recorded values is patent US6362166B1.

I'd be grateful if you could share measured CC50 for these entries.
# Tested on: HI-HeLa cells
# protocol: Cytotoxicity in mock-infected HI-HeLa cells (antirhinoviral assay, XTT)
# Format: cell-based

CCOC(=O)/C=C/[C@H](CCC(N)=O)NC(=O)[C@H](CC(C)C)NC(=O)[C@H](CC(C)C)NC(=O)OCc1ccccc1 = > 320 µM
CC(C)C[C@H](NC(=O)OCc1ccccc1)C(=O)N[C@@H](Cc1ccccc1)C(=O)N[C@H](/C=C/S(=O)(=O)c1ccccc1)CCC(N)=O = > 320 µM
CCOC(=O)/C=C/[C@H](CCC(N)=O)NC(=O)[C@H](Cc1ccc(Cl)cc1)NC(=O)c1cc2c(OC)cccc2[nH]1 = 44.7 µM
CCOC(=O)/C(C)=C/[C@H](CCC(N)=O)NC(=O)[C@H](Cc1ccccc1)NC(=O)[C@H](CC(C)C)NC(=O)SC(C)C = > 100 µM
CCNC(=O)/C=C/[C@H](CCC(N)=O)NC(=O)[C@H](Cc1ccccc1)NC(=O)[C@H](CC(C)C)NC(=O)OCc1ccccc1 = > 320 µM

// switching to the query molecule
input: Value lookup for CC50; key = CCOC(=O)/C=C/[C@H](CCC(N)=O)NC(=O)[C@H](Cc1ccccc1)NC(=O)[C@H](C[S+]([O-])Cc1ccccc1)NC(=O)OCc1ccccc1 (stereo partly drawn)
output: > 100 µM

###

# system: Recombinant Rhinovirus 3C protease (RVP) serotype-14 (Human rhinovirus 14, UniProt P03303)
# Construct: Recombinant Rhinovirus 3C proteases from serotypes 14, 16, 2 or 89; made in house
# Sequence (P03303 1538-1719): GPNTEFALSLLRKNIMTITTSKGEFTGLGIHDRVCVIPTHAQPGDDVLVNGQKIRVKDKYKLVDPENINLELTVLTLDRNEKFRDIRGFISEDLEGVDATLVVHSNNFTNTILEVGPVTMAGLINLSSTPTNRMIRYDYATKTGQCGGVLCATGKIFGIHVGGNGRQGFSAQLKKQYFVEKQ
# protocol: Inhibition of Rhinovirus Protease (fluorescence resonance energy transfer assay), serotype 14
# Type: biochemical, human rhinovirus (HRV)
# measurement conditions: RVP serotype-14; progress curves in enzyme start experiments
experimental endpoint: kobs/I

Known kobs/I results, listed for orientation:
CCOC(=O)/C=C/[C@H](CCC(N)=O)NC(=O)[C@H](CSC)NC(=O)[C@H](CC(C)C)NC(=O)OCc1ccccc1 = 2,929 M-1 sec-1
CC(C)C[C@H](NC(=O)OCc1ccccc1)C(=O)N[C@@H](Cc1ccccc1)C(=O)N[C@H](/C=C/C(=O)c1ccco1)CCC(N)=O = 460,000 M-1 sec-1
CC(C)C[C@H](NC(=O)OCc1ccccc1)C(=O)N[C@@H](Cc1ccccc1)C(=O)N[C@H](/C=C/S(C)(=O)=O)CCC(N)=O = 160 M⁻¹ s⁻¹
CC(C)C[C@H](NC(=O)OCc1ccccc1)C(=O)N[C@@H](Cc1ccccc1)C(=O)N[C@H](/C=C/C(=O)N1CCCC1=O)CCC(N)=O = 125,940 M-1 sec-1
CCOC(=O)/C=C/[C@H](CCC(N)=O)NC(=O)[C@H](Cc1ccc(F)cc1)NC(=O)[C@@H](NC(=O)SC1CCCC1)C(C)(C)C = 240,000 M-1 sec-1

Each compound below has a reported value. Please supply its kobs/I.
1. CCOC(=O)/C(C)=C/[C@H](CCC(N)=O)NC(=O)[C@H](Cc1ccccc1)NC(=O)[C@H](CC(C)C)NC(=O)SC(C)C
2. CCOC(=O)/C=C/[C@H](CCC(N)=O)NC(=O)[C@H](Cc1ccccc1)NC(=O)[C@H](CC(C)C)NC(=O)SC1CCCC1

output:
1: 21,200 M-1 sec-1; 2: 114,360 M-1 sec-1
